# fold-change of OD 450 over negative control (BSA) values compiled below
# measurement-target: T1, Mature Activin A (human, UniProt P08476 311-426)
# T1 construct: also called active Activin A; INHBA mature
# T1 sequence: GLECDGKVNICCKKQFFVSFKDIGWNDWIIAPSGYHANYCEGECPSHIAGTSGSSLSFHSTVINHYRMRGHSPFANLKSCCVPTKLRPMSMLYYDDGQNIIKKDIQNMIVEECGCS
# protocol: ELISA, coated antigen, OD450
quantity-kind: fold-change of OD 450 over negative control (BSA) (fold)

[[record]]
binder = "AB345 (antibody, IgG1, V domains shown) VH: EVQLVESGGGLVQPGGSLRLSCAASGFTSSGYWMSWFRQAPGKGLELVASIGTAGVTYYPDSVKGRFTISRDNAKNSLYLQMNSLRAEDTAVYYCARGPHGPQQRLRFDPWGQGTLVTVSS VL: DIVMTQSPLSLPVTPGEPASISCRSSQSLLSSYGYHNLHWYLQKPGQSPQLLIYMGSIRAPGVPDRFSGSGSGTDFTLKISRVEAEDVGVYYCMQGTQAPRTFGGGTKVEIK"
result = 9.47

[[record]]
binder = "AB439 (antibody, IgG1, V domains shown) VH: EVQLVQSGAEVKKPGASVKVSCKASGYTYTGYRISWVRQAPGQGLEWMGWIDPKSGRTNYAQKLQGRGTMTTDPSTSTAYMELRSLRSDDTAVYYCAREVKQWLVPGRGVYWFDPWGQGTLVTVSS VL: ESALTQPASVSGSPGQSITISCTGTNIGLRSVSWYQQHPGKAPKLMIYDTNIRSSGVSNRFSGSKSGNTASLTISGLQAEDEADYYCSSYTSSSTDVFGGGTKLTVL"
result = 1.45

[[record]]
binder = "AB430 (antibody, IgG1, V domains shown) VH: EVQLVESGGGLVQPGGSLRLSCAASGFTLSNYPMSWVRQAPGKGLELVASTTSGSSTIYYPDSVKGRFTISRDNAKNSLYLQMNSLRAEDTAVYYCARGPDYYAPLRSYMDVWGKGTTVTVSS VL: DIVMTQSPLSLPVTPGEPASISCRSSQSLQQSEGRTYLHWYLQKPGQSPQLLIYDASKRASGVPDRFSGSGSGTDFTLKISRVEAEDVGVYYCMQVLRTPITFGGGTKVEIK"
result = 7.58

[[record]]
binder = "AB344 (antibody, IgG1, V domains shown) VH: EVQLVESGGGLVQPGGSLRLSCAASGYTFSNYGMSWVRQAPGKGLELVASISKSGSSIYYPDSVKGRFTISRDNAKNSLYLQMNSLRAEDTAVYYCARLPRLAWNYYYGMDVWGQGTTVTVSS VL: DIVMTQSPLSLPVTPGEPASISCRSSRSLVHGSGDNYLHWYLQKPGQSPQLLIYMASNRAPGVPDRFSGSGSGTDFTLKISRVEAEDVGVYYCVQTLQTPSTFGGGTKVEIK"
result = 3.18

[[record]]
binder = "AB363 (antibody, IgG1, V domains shown) VH: QVTLRESGPALVKPTQTLTLTCTVSGFSLSTSGATVNWIRQPPGKALEWIGYITSSGRTVYNSALKSRLTISKDTSKNQVVLTMTNMDPVDTATYYCTTTKIVGATLRDYWGQGTLVTVSS VL: DIQMTQSPSSVSASVGDRVTITCRASQGISNDLAWYQQKPGKAPKLLIYDVSNRASGVPSRFSGSGSGTDFTLTISSLQPEDFANYYCQQYDNPPSFGGGTKVEIK"
result = 7.63


Reference for the values: patent US20250270304A1
